# maps each entry to its MIC
test system: Escherichia coli; assay: Antimicrobial activity against Escherichia coli R4525 expressing gyrA S83L and D87Y and parC S80I and E84G mutant gene by CLSI method; format: functional
endpoint: MIC

> print(dat)
                                   molecule     tested.target  measured.result
1  CCn1cc(C(=O)O)c(=O)c2cc(F)c(N3CCNCC3)cc21  Escherichia coli      > 256 µg/mL
2           CCn1cc(C(=O)O)c(=O)c2ccc(C)nc21  Escherichia coli      > 256 µg/mL
3  CCN1CCN(c2cc3c(cc2F)c(=O)c(C(=O)O)cn3C2CC2)CC1  Escherichia coli       > 32 µg/mL
4  C[C@@H]1CN(c2c(F)c(N)c3c(=O)c(C(=O)O)cn(C4CC4)c3c2F)C[C@H](C)N1  Escherichia coli       > 32 µg/mL
5  CC1COc2c(N3CCN(C)CC3)c(F)cc3c(=O)c(C(=O)O)cn1c23 (stereo not given)  Escherichia coli       > 32 µg/mL
